Item-by-item account of Relative Activity to a positive control compound (troglitazone = 1)
biological target: human PPARγ (Homo sapiens, UniProt P37231); construct: expressed in transfected cells; host or cells: CV-1 cells; assay: Luciferase assay using human PPARγ (Gal4-PPARγ ligand binding domain chimeric receptor, CV-1 host cells); format: cell-based; details: PPARγ agonistic activity; compound 10 μM; luciferase activity of troglitazone (10 μM) defined as 1.0; CV-1 cells
Sequence (P37231 204-505): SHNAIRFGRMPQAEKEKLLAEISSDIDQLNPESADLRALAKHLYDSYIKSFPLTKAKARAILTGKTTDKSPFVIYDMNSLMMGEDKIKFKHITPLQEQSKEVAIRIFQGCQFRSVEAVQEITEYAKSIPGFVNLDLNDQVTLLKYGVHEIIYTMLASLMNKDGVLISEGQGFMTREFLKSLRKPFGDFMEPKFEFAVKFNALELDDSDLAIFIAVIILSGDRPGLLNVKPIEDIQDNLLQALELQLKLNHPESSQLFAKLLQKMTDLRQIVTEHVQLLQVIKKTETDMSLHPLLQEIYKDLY
metric: Relative Activity to a positive control compound (troglitazone = 1)

INSERT INTO assay_data (smilesnotation, measurementtarget, number) VALUES
  ('CCc1ccc(-c2nc(Cc3ccc(/C=C/CSCC(=O)O)o3)c(C)o2)cc1', 'human PPARγ (Homo sapiens, UniProt P37231)', 2.2),
  ('Cc1oc(-c2ccc3c(c2)OCO3)nc1Cc1ccc(/C=C/CSCC(=O)O)o1', 'human PPARγ (Homo sapiens, UniProt P37231)', 2.3),
  ('Cc1ccc(-c2nc(Cc3ccc(/C=C/CSCC(=O)O)o3)c(C)o2)cc1', 'human PPARγ (Homo sapiens, UniProt P37231)', 1.1),
  ('Cc1oc(-c2ccccc2)nc1Cc1ccc(/C=C/CSCC(=O)O)o1', 'human PPARγ (Homo sapiens, UniProt P37231)', 2.3);
